src = patent US20240327502A1

Measured PRNT IC50 values are reported for all entries that follow.
Substrate: F protein of hMPV A virus (human metapneumovirus subtype A)
test-protocol: cell-based or functional assay
Your answer is read as µg/mL, so omit the unit and give the number.

M4B04 (antibody, V domains shown) VH: QVQLVESGGGVVQPGKSLRLSCAASGFTFRSYTMFWVRQAPGKGLEWVAIILHDGTNRYYTDSVKGRFTISRDNTKNTVYLQMNSLRPEDTAMYYCARESLEWMLDWGQGTLVTVSS VL: EIVMTQSPATLSVSPGERATLSCRASQSLSGNLAWFQQKPGQAPRLLIYGTSTRATGIPARFSGSGSGTEFTLTISSLQSEDFAVYYCQQYNNWPPVFTFGPGTKVDIK ... 4.59

Exam item: Quick check: PRNT IC50 of M1A12 (antibody, V domains shown) VH: QVQLVQSGTEVKKPGSSVKVSCKDPGDIMSSHSIHWVRQAPGQGPEWMGRIIPLFGMKSYAPNFQGRVSISVDTSTNTAYLELSGLKSDDTAVYFCAREENLSWLDYWGQGTQVIVSS VL: EIVLTQSPATLSLSPGDRATLSCRASLRLSTNIAWYQQKPGQAPRLVIYDASKRATGIPARFSGSGSGTDFTLTISSLEPEDFAVYYCHQHSNWYTFGQGTKLEIK ?
Marked response: 1.51
